assay: AUC (0 to infinity) in Sprague-Dawley rat at 5 mg/kg, po administered as single dose by LC-MS/MS analysis; type: ADME, organism-based; parameters: dose 5 mg/kg, route oral, time infinity; settings: Sprague-Dawley, in vivo
Quantity Name: AUC(0-inf) (ng·h/mL)

# Compound, AUC(0-inf), ng·h/mL
records = [
    ("CC1=Nc2ccc(-c3nc(Nc4ccc(N5CCN(C)CC5)cn4)ncc3F)cc2C12CCCC2", 382),
]

[1] CCN1CCN(c2ccc(Nc3ncc(F)c(-c4cc(F)c5c(c4)C4(CCCC4)C(C)=N5)n3)nc2)CC1
[2] CC1=Nc2c(F)cc(-c3nc(Nc4ccc(N5CCN(C)CC5)cn4)ncc3F)cc2C12CCCC2
[3] CCN1CCN(Cc2ccc(Nc3ncc(F)c(-c4cc(F)c5c(c4)C4(CCCC4)C(C)=N5)n3)nc2)CC1
Sort by AUC(0-inf), descending. Reply with the labels, ordered as the question asks.
1, 3, 2

The origin of these recorded values is ChEMBL document CHEMBL4251601.
